Data origin: ChEMBL document CHEMBL1201862

Could you please report measured GI50 for the items listed next?
- System: HT-29
- Assay details: NCI tumour cell line growth inhibition, 48 h
Calls of active or inactive are those of the source. No stated cut-off is given here; in the data, active = GI50 up to about 1.1 µM and inactive = higher.

Qu. API: value(readout=GI50, system=HT-29) for record COc1ccc(-c2c(C#N)c(-c3ccc(C)cc3)n(NS(=O)(=O)c3ccc(C)cc3)c(=O)c2C#N)cc1
Ans. 44.1 µM (inactive)

Qu. Then Cc1n[nH]c(=O)c2c3c([nH]c12)-c1ccccc1C3 ?
Ans. > 100 µM (inactive)

Qu. Then Nc1ccc(S(=O)(=O)c2ccc(NC(=O)c3cccnc3)cc2)cc1 ?
Ans. > 100 µM (inactive)

Qu. Then C1=Cc2cccc3occ(c23)C=C1 ?
Ans. 35.1 µM (inactive)

Qu. Then Cc1c(-c2cnccn2)ssc1=S ?
Ans. > 100 µM (inactive)

Qu. Then O/N=C1/C(=C/c2ccc(OCc3ccccc3)cc2)CCCC1C(NO)c1ccc(OCc2ccccc2)cc1 (stereo not given) ?
Ans. 5.24 µM (inactive)

Qu. Then Cc1nc2ccccc2c(=O)n1-c1n[nH]c2ccccc12 ?
Ans. > 100 µM (inactive)

Qu. Then C=C1C(OC)=C(OC)C(=O)c2[nH]c3c(OC)cc([N+](=O)[O-])cc3c21 ?
Ans. > 100 µM (inactive)

Qu. Then CCOc1cc2c(cc1O)/C(=N\N)C[C@@H]1[C@@H]2CC[C@]2(C)[C@@H](O)CC[C@@H]12 ?
Ans. 9.53 µM (inactive)

Qu. Then Cc1cccc(-n2c(=S)[nH]c3c(sc(=O)n3-c3ccccc3C)c2=O)c1 ?
Ans. > 100 µM (inactive)
